- Tested on: CRL-7250
- Experimental details: qHTS assay to identify novel small-molecules to repurpose for Merkel cell carcinoma treatment (AID 1296009); note: nearly all actives have a fitted effect of over 60% in size
- Condition: MCC and control cell lines, CellTiter-Glo viability, 72 h; series mostly up to 92 µM
Results filed as inconclusive are left out. Calls of active or inactive are those of the source. Calls come from the whole dose curve; as a rule, active = well fitted inhibition curve with a large enough effect; inconclusive = small, poorly fitted or top-dose-only effect; inactive = flat fitted curve, though single readings scatter. Peptide text beside a SMILES is read from it.
Parameter: outcome

Molecule | Meas value
O=S(=O)(Nc1ccccn1)c1ccc(N=Cc2c(O)[nH]c3ccc4ncsc4c23)cc1 | inactive [at 9.27 µM]
C[C@@H](O)[C@H](N)C(=O)N1CCC[C@H]1C(=O)N1CCC[C@H]1C(=O)N[C@H](C(N)=O)[C@@H](C)O (H-TPPT-NH2) | inactive [at 9.27 µM]
CNC(C)C(=O)NC(C(=O)N1CCCC1C(=O)Nc1cccc2ncccc12)C(C)C (stereo not given) | inactive
C/C(=C\CCC1(C)C2CC3C(C2)C31C)C(=O)O (stereo not given) | inactive
